Source listed as the supplement of paper PMC11865577.

# Tested on: TO-N3-2 (biotin conjugate)
# measurement notes: pull-down binding Z-score (relative to library population); higher = stronger binding
# experimental context: RNA library: Library-2
sequences and their reported pull-down binding Z-score
metric name: pull-down binding Z-score

• GAUUGGUUAGCCUAAGACUUGUUCUGAUCCAAUC [hsa-mir-5701-1_5701-2_5701-3] = 0.061
• UCUCUAAUGAGA = -1.53
• CCCAGCCUUCCAGAGUUGGUGCCAGG [hsa-mir-4476] = 1.11
• AGUACACCUUUGAAAAAGGUGACU = -1.09
• AACUGAAAGUAAACCUUCAGUU = -1.3
• GUUUUCUACAAAGAAAAC = -1.75
• GUUAAAAAUCUGAAUUCUUCUAGAGUUCCUGAUCUUCUGGUCUAAAC = 0.13
• CAGCAAGAACUG [DMSMaPseq_invitro_SARS-CoV-2_Motif_202] = -0.724
• UGUGGUAAACAAGCUACA = -0.906
• CAGUGGCAGAUUUUCCCAUAG [hsa-mir-4727] = -0.00285
• UCUCUCUCAUUUUGUUAACUUAGACAACCUGAGAGCUAAUAACACUAAAGGUUCAUUGCCUAUUAAUGUUAUAGUUUUUGAUGGUAAAUCAAAAUGUGAAGA [DMSMaPseq_invitro_SARS-CoV-2_Motif_146] = -0.699
• UGUCAUUACUUUCAAUGGCA [hsa-mir-548h-2] = -1.22
• CUUUGCUACUGCUC [hsa-mir-6072] = 0.112
• UGUACGCUUUAUUUGUGACGUAGG [hsa-mir-1197] = 0.0488
• UUGUCUCCUCAAGUUGCGACGAGACAG [hsa-mir-4645] = -0.585
• GAUUCGCUUUACUUAUGACGAAUC [hsa-mir-382] = -0.716
• CUAUCCUUCCCUUGGAAAAUGAUCUGAG [hsa-mir-4770] = -5.12e-05
• GGUGGGCCUCUGCUCUGGCCCCUCC [hsa-mir-1343] = 0.301
• AAGGGGGCCGUGGGGUGGGAGCUGGGGAA [G4_2A2_BCL2] = 4.88
• GGGAAGAACACC [IAV_invivo_M1_M2_7_Motif_3+IAV_invivo_M1_M2_7_Motif_3] = -0.0552
• GUGAGAGAUGCUUCUAGAUCCAGGAGGCAGACCUCAA [hsa-mir-4325] = 0.879
• UGGAUUUGAAAUGGUCCCACUCCUGACGAUCCU [hsa-mir-6748] = 0.335
• CUCCGGGUUGGGG [hsa-mir-1469] = -0.557
• UGAAAGGUUUUUUCUCUCA [hsa-mir-4797] = -0.918
• GAUAUGCCAUUAUGUGGGUCAUGAGGUGGUGA [hsa-mir-6864] = 1.54
• CUUUGUAUUGCAUAGACGGUGCUUUACUUACAAAGUCCUCAGAAUACAAAG = -1.1
• CGCGCGUCGAGUCAGCCGUGUG [hsa-mir-933] = 0.532
• CAUGCAUGUGUCUAGAAAUAUGUUUU [hsa-mir-507] = 0.104
• GGAAUUUGAACC [IAV_invivo_PB2_1_Motif_28+IAV_invivo_PB2_1_Motif_28] = -0.514
• GGUUCAACUCUCCCUAGGAGGUCUGGAGCC [IAV_invivo_NP_5_Motif_11+IAV_invivo_NP_5_Motif_11] = 0.0598
• AUCGGUCGAGAGCGUCCUGGCUGAU [hsa-mir-3178] = 1
• GAAAAGAACAAUCAAGGGUACACACCACUGGUUGUUACUCACAAUUUUGACUUCACUUUUAGUUUUAGUCCAGAGUACUCAAUGGUCUUUGUUCUUUUU = 0.0117
• UUUCUCUUGUCUAAAAGAAAAGAAA [hsa-mir-518f] = -0.969
• GCGCUGCCAGAAACUGGCAGCGC [full-UA] = -0.943
• AGUUGUGAUCAACU = -1.24
• UGCAGAUUCAACUUUGAUUGGUGAUUGUGCA = -0.565
• CAACUCUCAUGAAGUGUGAUCAUUGUGGUGAAACUUCAUGGCAGACGGGCGAUUUUGUUAAAGCCACUUGCGAAUUUUG = 0.0444
• AUCAAGACUAUUCAACCAAGGGUUGAAAAGAAAAAGCUUGAU = -1.25
• GCAGAGCAGGACGCCGCUGCUGC [hsa-mir-8072] = 1.65
• UUUCAGAUAACUCGGGA [hsa-mir-4320] = 0.00433
• GUCUAAUCUCAAACCUUUUGAGAGAGAU = -1.07
• CUGUCCUGGACUGGGGUCAGACUGUGCCCCGAGGAGAAGCAG [hsa-mir-922] = 1.47
• GACCUGGAUGUGUAGGAGCUAAGACACACUCCAGGGG [hsa-mir-920] = 1.41
• UGGAGUUUUUUUUUCCUCCUG [hsa-mir-4329] = 0.0619
